Source listed as ChEMBL document CHEMBL5053516.

- METHOD_DESCRIPTION: Cytotoxicity against mouse HCA1 cells assessed as cell viability by MTT assay
- Assay type: functional, cell-based
MEASUREMENT_TYPE: IC50 (nM)
# value in nM; strip the unit string

// below: answered compounds
Query: Fill blank: measured IC50 of the compound C=CC1CN2CCC1C[C@H]2[C@@H](NC(=O)Nc1ccc(OC)cc1)c1ccnc2ccc(OC)cc12 (some centres undefined) is ____.
Result: 5850

Query: Dear colleague, I am looking for the recorded IC50 of the following compound: C=CC1CN2CCC1CC2[C@H](NC(=O)Nc1cc(C(F)(F)F)cc(C(F)(F)F)c1)c1ccnc2ccc(OC)cc12 (some centres undefined)
Result: 420

Now look at this entry.
Query: Name the reported IC50 value associated with the compound C=CC1CN2CCC1C[C@H]2[C@@H](NC(=O)Nc1cccc(C(F)(F)F)c1)c1ccnc2ccc(OC)cc12 (some centres undefined)
Result: 1480

----------
# pIC50 values compiled below
- METHOD_DESCRIPTION: Cytotoxicity against mouse HCA1 cells assessed as cell viability by MTT assay
- Format: functional, cell-based
Remember the convention: pIC50 equals -log10 of concentration in molar.

These recorded examples may help you get a feel for the data.
Query: // query pIC50 value for entry C=CC1CN2CCC1CC2[C@@H](NC(=O)Nc1ccc(C(F)(F)F)cc1)c1ccnc2ccc(OC)cc12 (stereo partly drawn)
Result: 6.21

Query: For the compound shown here, C=CC1CN2CCC1C[C@H]2[C@@H](NC(=O)Nc1cc(OC)cc(OC)c1)c1ccnc2ccc(OC)cc12 (stereo partly drawn) , give the reported pIC50.
Result: 5.65

Query: What does the data say about its pIC50? Entry: C=CC1CN2CCC1C[C@H]2[C@@H](NC(=O)Nc1ccccc1C(F)(F)F)c1ccnc2ccc(OC)cc12 (stereo partly drawn)
Result: 5.24

Next:
Query: For C=CC1CN2CCC1CC2[C@@H](NC(=O)Nc1ccc(F)cc1)c1ccnc2ccc(OC)cc12 (stereo partly drawn) , what is its reported pIC50?
Result: 5.55

Query: Any idea what its pIC50 is? The compound is C=CC1CN2CCC1CC2[C@@H](NC(=O)Nc1cc(C(F)(F)F)cc(C(F)(F)F)c1)c1ccnc2ccc(OC)cc12 (stereo partly drawn)
Result: 6.64

Query: Requested read-out: pIC50. Entry: C=CC1CN2CCC1CC2[C@@H](NC(=S)Nc1cc(C(F)(F)F)cc(C(F)(F)F)c1)c1ccnc2ccc(OC)cc12 (stereo partly drawn)
Result: 6.43
